- Subject of test: Human CB1 receptor (hCB1) (Homo sapiens, UniProt P21554)
- Construct: purchased Receptor Biology
- Sequence (P21554 whole entry): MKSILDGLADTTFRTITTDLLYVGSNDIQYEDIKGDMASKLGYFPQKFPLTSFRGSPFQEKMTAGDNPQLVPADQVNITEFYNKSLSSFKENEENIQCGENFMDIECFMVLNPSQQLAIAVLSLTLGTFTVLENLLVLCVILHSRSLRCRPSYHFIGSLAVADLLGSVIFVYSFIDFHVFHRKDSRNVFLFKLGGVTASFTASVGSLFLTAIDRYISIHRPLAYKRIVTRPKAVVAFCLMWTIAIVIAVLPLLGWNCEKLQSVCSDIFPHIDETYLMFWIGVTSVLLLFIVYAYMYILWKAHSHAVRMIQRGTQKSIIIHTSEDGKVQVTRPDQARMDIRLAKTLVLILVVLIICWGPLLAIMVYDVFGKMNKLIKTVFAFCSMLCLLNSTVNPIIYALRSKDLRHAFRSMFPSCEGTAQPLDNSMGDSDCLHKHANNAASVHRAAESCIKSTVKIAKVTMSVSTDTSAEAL
- Assay details: hCB1 GTPγS binding
- Format: biochemical
- Condition notes: maximal stimulated binding determined with 10 μM Win 55,212-2
Readout: Emax

CCNC(=O)CN(CC)C(=O)c1ccc2c(c1)c1c(n2CC(C)(C)O)CCC(C2CCOCC2)C1 (stereo not drawn)	> 34%
CCNC(=O)CN(CC)C(=O)c1ccc2c(c1)c1c(n2CC(=O)NC)CCC(C2CCOCC2)C1 (stereo not drawn)	> 9%

// below: Emax requested for another compound
Query: Entry under review: CCS(=O)(=O)n1c2c(c3cc(C(=O)N4CCC[C@@H]4C(=O)NCCF)ccc31)CC(C1CCOCC1)CC2 (stereo partly drawn) . Reported Emax?
Reply: > 107%
